Kindly state deltaT for each of the entries shown.
Assay: Effect on body temperature in Swiss Albino mouse assessed as rectal body temperature at 20 mg/kg, ip measured after 90 mins by thermometer (reference value: 0.18 to 0.63 degreeC)
Assay type: ADME, organism-based
Conditions: in vivo, 1.5 h
Numbers only, in °C.

See these solved cases before continuing.
compound	units.label	result
O=C(NC1CC2CCC(C1)N2Cc1ccccc1Cl)c1ccc2ccccc2c1 (stereo not given)	°C	0.44
COc1ccccc1CN1C2CCC1CC(NC(=O)c1ccc3ccccc3c1)C2 (stereo not given)	°C	0.16
Cc1cccc(CN2C3CCC2CC(NC(=O)c2ccc4ccccc4c2)C3)c1 (stereo not given)	°C	0.2

Please give deltaT for each item listed below.
1. O=C(NC1CC2CCC(C1)N2Cc1ccc(F)cc1)c1ccc2ccccc2c1 (stereo not given)
2. O=C(NC1CC2CCC(C1)N2Cc1cccc(F)c1)c1ccc2ccccc2c1 (stereo not given)

Result ::
1. 0.23
2. 0.2

* * *

Assay: Effect on body temperature in Swiss Albino mouse assessed as rectal body temperature at 10 mg/kg, ip measured after 120 mins by thermometer (reference value: 0.15 to 1.11 degreeC)
Format: organism-based
Conditions: in vivo, 2 h
readout.type: deltaT (°C)
One number for each entry, in °C.

compound	deltaT (°C)
O=C(NC1CC2CCC(C1)N2Cc1ccccc1Cl)c1ccc2ccccc2c1 (stereo unspecified)	1.34
O=C(NC1CC2CCC(C1)N2Cc1ccc(F)cc1)c1ccc2ccccc2c1 (stereo unspecified)	0.59
COc1ccccc1CN1C2CCC1CC(NC(=O)c1ccc3ccccc3c1)C2 (stereo unspecified)	0.26
O=C(NC1CC2CCC(C1)N2Cc1cccc(F)c1)c1ccc2ccccc2c1 (stereo unspecified)	0.74
Cc1cccc(CN2C3CCC2CC(NC(=O)c2ccc4ccccc4c2)C3)c1 (stereo unspecified)	0.27

Shifting focus to the compound that follows.
Query :: Consider the compound shown here: O=C(NC1CC2CCC(C1)N2Cc1cccc(Cl)c1)c1ccc2ccccc2c1 (stereo unspecified) What is its recorded deltaT?
Result :: 1.16
